Target: MAPK14 (human) (UniProt Q16539)
Sequence (Q16539 whole entry, looked up): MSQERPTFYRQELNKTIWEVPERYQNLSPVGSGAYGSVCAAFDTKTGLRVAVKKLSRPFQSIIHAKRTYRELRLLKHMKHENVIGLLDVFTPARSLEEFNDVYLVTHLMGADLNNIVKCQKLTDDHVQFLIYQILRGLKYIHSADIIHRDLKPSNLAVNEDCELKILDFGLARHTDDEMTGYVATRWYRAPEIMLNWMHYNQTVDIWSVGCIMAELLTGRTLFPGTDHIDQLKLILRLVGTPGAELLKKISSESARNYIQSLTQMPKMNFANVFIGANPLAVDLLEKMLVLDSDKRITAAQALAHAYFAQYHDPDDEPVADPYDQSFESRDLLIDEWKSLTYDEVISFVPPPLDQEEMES
Settings: pbmc

SMILES INPUT: OCCC#Cc1nc(-c2ccc(F)cc2)c(-c2ccncc2)n1CCCc1ccccc1
TGT: MAPK14 (human) (UniProt Q16539)
UNIT TAG: nM
IC50: 13
